Hey, just so you know, these numbers are from patent US20040014191A1.

# Lookup of reported kcat (CB 1954) keyed by entry
assay: Nitroreductase enzyme assay with CB 1954 as substrate (HPLC); format: biochemical
Write the answer as a number in s⁻¹, unit excluded.

Worked set:
C. jejuni NfnB: nitroreductase from Campylobacter jejuni, SEQ ID NO: 23 (protein, listed as Campylobacter jejuni) MKKELEIFSTRYSCRNFKNEKLKKEDLNSILEIARLSPSSLGLEPWKFIVVQDEKRKEELSKICNQQKHVKDCAALIIIISRLDFLDYFEEKLRKRDMSETEMQKRLDTYMPFLKSLNQEQKISYAREQAHIALASILYSANALNIASCTIGGFDKEKLDSYLSLDIQKERSSLVVALGYCNDKKNPQKNRFSFDEVVKFI = 6.1
YodC: nitroreductase from B. subtilis, SEQ ID NO: 12 (coded for by SEQ ID NO: 11) (protein, listed as Bacillus subtilis) MTNTLDVLKARASVKEYDTNAPISKEELTELLDLATKAPSAWNLQHWHFTVFHSDESKAELLPVAYNQKQIVESSAVVAILGDLKANENGEEVYAELASQGYITDEIKQTLLGQINGAYQSEQFARDSAFLNASLAAMQLMIAAKAKGYDTCAIGGFNKEQFQKQFDISERYVPVMLISIGKAVKPAHQSNRLPLSKVSTWL = 58.0
YdgI (Bacillus subtilis subsp. subtilis str. 168) (protein, made in house; host or cells: E. coli (pMTL1015; HMS174)) MIKTNDFMEIMKGRRSIRNYDPAVKISKEEMTEILEEATTAPSSVNAQPWRFLVIDSPEGKEKLAPLASFNQTQVTTSSAVIAVFADMNNADYLEEIYSKAVELGYMPQEVKDRQIAALTAHFEKLPAQVNRETILIDGGLVSMQLMLTARAHGYDTNPIGGYDKENIAETFGLDKERYVPVMLLSIGKAADEGYASYRLPIDTIAEWK = 30.3

Now, please, on to the next molecule.
Incoming: Param item = P. gingivalis YwrO: nitroreductase from Porphyromonas gingivalis, SEQ ID NO: 25 (protein, listed as Porphyromonas gingivalis) MKKTLVIVVHPDLTKSVINKAWAKAIEGAATIHHLYEQYPNGQIDLAHEQALLEAHDRIVFQFPLYWYAAPYLLKKWMDEVFTEGWAYGAGGDKMEGKEICAAVSCGSPKSAFAEGAQQCHTLRSYLNVFDGIAAFLRARFTGYHACYDSYNPRLPEMLPANCEAYLRFIKGE ; retrieve measured kcat (CB 1954).
Outgoing: 3.2
